Exercise: state measured Emax for each of the molecules provided.
- Tested on: primary human T-cells
- Assay Comment: Proliferation assay after 5 days (CellTiter-Glo, CD3 stimulation; PBS counter screen)
- Type: cell-based
- Run Conditions: Homo sapiens, T-cell, 120 h, CD3 stimulation, 5 days; normalized to reference compound A1 as stimulator control = 100%, DMSO neutral control; read-out: Emax proliferation (% activation)
Give the quantity in %, number only.

In: # returns recorded Emax (system: primary human T-cells) for CC1(c2nnc(-c3ccc4c(c3)N(Cc3ccc(Cl)cc3)C(=O)[C@@H](N)CS4(=O)=O)o2)CCN(C(=O)OCC(F)(F)F)CC1
Out: 100

In: Please answer likewise for Cc1nnc(-c2nc(-c3cc4c(cc3F)S(=O)(=O)C[C@H](N)C(=O)N4Cc3ccc(OC(F)(F)F)cc3)no2)o1
Out: 80

In: Can you handle N[C@H]1CS(=O)(=O)c2cc(F)c(-c3noc(N4CCOC(C(F)(F)F)C4)n3)cc2N(Cc2ccc(Cl)cc2)C1=O (stereo partly shown) next?
Out: 108

In: Same question, N[C@H]1CS(=O)(=O)c2ccc(-c3nnc(N4CCOC5CC54)o3)cc2N(Cc2ccc(Cl)cc2)C1=O (stereo partly shown) this time
Out: 88

In: Do the same for CN=S1(=O)C[C@H](N)C(=O)N(Cc2ccc(OC(F)(F)F)cc2)c2cc(-c3nnc(C(C)(C)C)o3)c(F)cc21 (stereo partly shown) please
Out: 72

In: Same again, this time with CC(C)(C)NC(=O)c1nc(-c2cc3c(cc2F)S(=O)(=O)C[C@H](N)C(=O)N3Cc2ccc(Cl)cc2)no1
Out: 92

In: Follow-up item: N[C@H]1CS(=O)(=O)c2ccc(-c3nnc(N4CCOC5(CC5)C4)o3)cc2N(Cc2ccc(Cl)cc2)C1=O
Out: 78

All values here come from patent US20240368150A1.
